- experiment: Sulforhodamine B cytotoxicity, HMEC
- Assay type: cell-based, human
- particulars: human, 10^-6 to 10^-7 M, read-out: cell viability
quantity name: viability at 72 h

Inquiry: Quote viability at 72 h reported for O=C(OCCS(=O)(=O)c1ccccc1)N1c2ccc(OCCO)cc2C23OC24CCCC3C#C/C=C\C#CC14 (stereo not shown) please.
Reply text: 100%

---

- System: NHDF normal human dermal fibroblasts
- experiment: in vitro
- Format: cell-based
- particulars: Table 7, NHDF; read-out: Cytotoxicity (IC50)
quantity name: CC50

Inquiry: Quote CC50 reported for CC(COC(=O)N1c2ccccc2C23OC24CCCC3C#CC=CC#CC14)S(=O)(=O)c1ccccc1 (stereo not shown) please.
Reply text: < 100 µM

---

- experiment: Lethal dose / toxicity in mice
- Assay type: in vivo, mouse
- particulars: mouse, in vivo
quantity name: LD50

Inquiry: Quote LD50 reported for O=C(OCCS(=O)(=O)c1ccccc1)N1c2ccccc2C23OC24CCCC3C#C/C=C\C#CC14 (stereo not shown) please.
Reply text: ~50 mg/kg

---

- Test system: Ovcar-3 ovarian carcinoma cells
- experiment: Sulforhodamine B cytotoxicity, Ovcar-3
- Type: cell-based
- particulars: Homo sapiens, OVCAR-3, Ovcar-3; read-out: IC50
quantity name: IC50 (nM)
Answers are plain numbers, in nM.

Inquiry: Determine reported IC50 for O=C(OCCS(=O)(=O)c1ccccc1)N1c2ccc(OCCO)cc2C23OC24CCCC3C#C/C=C\C#CC14 (centres unmarked) ; test system: Ovcar-3 ovarian carcinoma cells.
Reply text: 780

---

- experiment: Sulforhodamine B cytotoxicity, CHO
- Type: cell-based, Chinese hamster
- particulars: hamster, cho cells; Table 7, CHO; read-out: Cytotoxicity (IC50)
quantity name: CC50 (µM)
One number for each entry, in µM.

Inquiry: Quote CC50 reported for O=C(Oc1ccccc1)N1c2ccccc2C23OC24CCCC3C#C/C=C\C#CC14 (centres unmarked) [Compound 21] please.
Reply text: 6.3
